biological target: hP2X3 (human purinergic P2X receptor subtype 3) (Homo sapiens (Human), UniProt P56373); assay: FLIPR calcium assay, hP2X3 expressed in HEK293 cells; assay type: cell-based; conditions: read-out: P2X3 IC50
Sequence (P56373 whole entry): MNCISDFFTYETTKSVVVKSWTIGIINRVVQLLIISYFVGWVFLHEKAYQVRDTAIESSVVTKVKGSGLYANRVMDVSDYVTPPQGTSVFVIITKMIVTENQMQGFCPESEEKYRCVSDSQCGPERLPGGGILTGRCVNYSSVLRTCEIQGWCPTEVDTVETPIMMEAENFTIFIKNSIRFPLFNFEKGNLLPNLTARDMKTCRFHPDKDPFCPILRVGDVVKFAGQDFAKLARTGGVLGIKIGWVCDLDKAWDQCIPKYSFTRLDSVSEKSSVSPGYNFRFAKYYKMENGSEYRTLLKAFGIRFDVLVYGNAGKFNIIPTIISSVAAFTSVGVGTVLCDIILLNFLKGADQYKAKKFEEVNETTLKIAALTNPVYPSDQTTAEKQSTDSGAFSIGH
We begin with a simple list: items and their reported IC50.

A selection of reference data follows.
COC(=O)N1CCO[C@@H](Cc2c(-c3c(F)cc(-c4nc(C#N)c[nH]4)cc3F)nc3cc(F)ccn23)C1
10 to 50 nM
COC(=O)N1CCO[C@@H](Cc2c(-c3c(F)cc(-n4ccc(C#N)c4)cc3F)nc3cc(C)ccn23)C1
10 to 50 nM
COC(=O)N1CCO[C@@H](Cc2c(-c3c(F)cc(NC(=O)CCC(=O)O)cc3F)nc3cc(C)ccn23)C1
< 10 nM
COC(=O)N1CCO[C@@H](Cc2c(-c3ccc(S(N)(=O)=O)cc3C)nc3cc(C)ccn23)C1
5.6 nM
CCC(=O)N1CCO[C@@H](Cc2c(-c3c(F)cc(-c4ccc(C#N)s4)cc3F)nc3cc(C)ccn23)C1
50 to 200 nM

Record for COC(=O)N1CCO[C@@H](Cc2c(-c3c(F)cc(NC(=O)C4CCC(=O)CC4)cc3F)nc3cc(C)ccn23)C1 under target or system hP2X3 (human purinergic P2X receptor subtype 3) (Homo sapiens (Human), UniProt P56373): IC50 reported as 50 to 200 nM

Record for COC(=O)N1CCO[C@@H](Cc2c(-c3c(F)cc(Nc4ccc(F)o4)cc3F)nc3cc(C)ccn23)C1 under target or system hP2X3 (human purinergic P2X receptor subtype 3) (Homo sapiens (Human), UniProt P56373): IC50 reported as 50 to 200 nM

Record for CNC(c1cc(F)c(-c2nc3cc(C)ccn3c2C[C@H]2CN(C(=O)OC)CCO2)c(F)c1)C(F)(F)F (some centres unmarked) under target or system hP2X3 (human purinergic P2X receptor subtype 3) (Homo sapiens (Human), UniProt P56373): IC50 reported as 10 to 50 nM

Record for COC(=O)N1CCO[C@@H](Cc2c(-c3ccc(S(N)(=O)=O)cc3Cl)nc3cc(C)ccn23)C1 under target or system hP2X3 (human purinergic P2X receptor subtype 3) (Homo sapiens (Human), UniProt P56373): IC50 reported as 7.5 nM

Record for COC(=O)N1CCO[C@@H](Cc2c(-c3ccc(S(N)(=O)=O)nc3Cl)nc3cc(C)ccn23)C1 under target or system hP2X3 (human purinergic P2X receptor subtype 3) (Homo sapiens (Human), UniProt P56373): IC50 reported as < 10 nM

Record for COC(=O)N1CCO[C@@H](Cc2c(-c3c(F)cc(-c4ccc(C#N)[nH]4)cc3F)nc3cc(C)ccn23)C1 under target or system hP2X3 (human purinergic P2X receptor subtype 3) (Homo sapiens (Human), UniProt P56373): IC50 reported as < 10 nM

These data points were gathered from patent US20240034729A9.
